Source of measurements: patent US20200262877A1

Activity of Cav2.1 with peptide (percentage of the reference compound) values by entry
molecular target: Cav2.1 (Homo sapiens); construct: host or cells: HEK293 or CHO; assay: cell-based; details: peptide at 20 μM; 100% = no change, <100% = inhibition
Sequence (P54289 25-1103): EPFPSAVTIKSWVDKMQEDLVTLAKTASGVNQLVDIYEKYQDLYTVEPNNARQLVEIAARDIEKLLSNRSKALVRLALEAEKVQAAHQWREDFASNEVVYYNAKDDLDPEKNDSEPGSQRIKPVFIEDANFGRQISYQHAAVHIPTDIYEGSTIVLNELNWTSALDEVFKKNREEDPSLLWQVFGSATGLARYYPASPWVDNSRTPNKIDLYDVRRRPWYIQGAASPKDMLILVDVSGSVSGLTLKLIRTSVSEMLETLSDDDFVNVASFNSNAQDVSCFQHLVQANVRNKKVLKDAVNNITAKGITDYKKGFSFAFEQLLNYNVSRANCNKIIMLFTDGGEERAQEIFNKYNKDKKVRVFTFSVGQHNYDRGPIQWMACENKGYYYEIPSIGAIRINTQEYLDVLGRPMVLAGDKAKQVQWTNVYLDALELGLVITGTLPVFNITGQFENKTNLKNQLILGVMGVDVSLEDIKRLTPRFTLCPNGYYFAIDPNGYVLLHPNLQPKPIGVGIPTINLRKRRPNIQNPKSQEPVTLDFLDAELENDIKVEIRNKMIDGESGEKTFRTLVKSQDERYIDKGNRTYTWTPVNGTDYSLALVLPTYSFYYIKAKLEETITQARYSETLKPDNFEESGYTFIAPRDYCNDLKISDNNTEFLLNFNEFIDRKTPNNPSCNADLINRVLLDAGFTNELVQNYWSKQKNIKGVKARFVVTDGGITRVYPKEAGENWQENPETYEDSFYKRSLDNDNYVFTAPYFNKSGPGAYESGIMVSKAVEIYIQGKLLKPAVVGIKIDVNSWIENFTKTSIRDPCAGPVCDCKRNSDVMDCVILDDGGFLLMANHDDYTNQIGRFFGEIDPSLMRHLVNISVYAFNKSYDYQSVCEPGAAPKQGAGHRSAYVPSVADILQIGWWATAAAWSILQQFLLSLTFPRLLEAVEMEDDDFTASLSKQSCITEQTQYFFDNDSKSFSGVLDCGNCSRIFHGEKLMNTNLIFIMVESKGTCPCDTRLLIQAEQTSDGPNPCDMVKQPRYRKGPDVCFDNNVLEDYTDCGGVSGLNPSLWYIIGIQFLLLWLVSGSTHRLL
Sequence (O00555 whole entry): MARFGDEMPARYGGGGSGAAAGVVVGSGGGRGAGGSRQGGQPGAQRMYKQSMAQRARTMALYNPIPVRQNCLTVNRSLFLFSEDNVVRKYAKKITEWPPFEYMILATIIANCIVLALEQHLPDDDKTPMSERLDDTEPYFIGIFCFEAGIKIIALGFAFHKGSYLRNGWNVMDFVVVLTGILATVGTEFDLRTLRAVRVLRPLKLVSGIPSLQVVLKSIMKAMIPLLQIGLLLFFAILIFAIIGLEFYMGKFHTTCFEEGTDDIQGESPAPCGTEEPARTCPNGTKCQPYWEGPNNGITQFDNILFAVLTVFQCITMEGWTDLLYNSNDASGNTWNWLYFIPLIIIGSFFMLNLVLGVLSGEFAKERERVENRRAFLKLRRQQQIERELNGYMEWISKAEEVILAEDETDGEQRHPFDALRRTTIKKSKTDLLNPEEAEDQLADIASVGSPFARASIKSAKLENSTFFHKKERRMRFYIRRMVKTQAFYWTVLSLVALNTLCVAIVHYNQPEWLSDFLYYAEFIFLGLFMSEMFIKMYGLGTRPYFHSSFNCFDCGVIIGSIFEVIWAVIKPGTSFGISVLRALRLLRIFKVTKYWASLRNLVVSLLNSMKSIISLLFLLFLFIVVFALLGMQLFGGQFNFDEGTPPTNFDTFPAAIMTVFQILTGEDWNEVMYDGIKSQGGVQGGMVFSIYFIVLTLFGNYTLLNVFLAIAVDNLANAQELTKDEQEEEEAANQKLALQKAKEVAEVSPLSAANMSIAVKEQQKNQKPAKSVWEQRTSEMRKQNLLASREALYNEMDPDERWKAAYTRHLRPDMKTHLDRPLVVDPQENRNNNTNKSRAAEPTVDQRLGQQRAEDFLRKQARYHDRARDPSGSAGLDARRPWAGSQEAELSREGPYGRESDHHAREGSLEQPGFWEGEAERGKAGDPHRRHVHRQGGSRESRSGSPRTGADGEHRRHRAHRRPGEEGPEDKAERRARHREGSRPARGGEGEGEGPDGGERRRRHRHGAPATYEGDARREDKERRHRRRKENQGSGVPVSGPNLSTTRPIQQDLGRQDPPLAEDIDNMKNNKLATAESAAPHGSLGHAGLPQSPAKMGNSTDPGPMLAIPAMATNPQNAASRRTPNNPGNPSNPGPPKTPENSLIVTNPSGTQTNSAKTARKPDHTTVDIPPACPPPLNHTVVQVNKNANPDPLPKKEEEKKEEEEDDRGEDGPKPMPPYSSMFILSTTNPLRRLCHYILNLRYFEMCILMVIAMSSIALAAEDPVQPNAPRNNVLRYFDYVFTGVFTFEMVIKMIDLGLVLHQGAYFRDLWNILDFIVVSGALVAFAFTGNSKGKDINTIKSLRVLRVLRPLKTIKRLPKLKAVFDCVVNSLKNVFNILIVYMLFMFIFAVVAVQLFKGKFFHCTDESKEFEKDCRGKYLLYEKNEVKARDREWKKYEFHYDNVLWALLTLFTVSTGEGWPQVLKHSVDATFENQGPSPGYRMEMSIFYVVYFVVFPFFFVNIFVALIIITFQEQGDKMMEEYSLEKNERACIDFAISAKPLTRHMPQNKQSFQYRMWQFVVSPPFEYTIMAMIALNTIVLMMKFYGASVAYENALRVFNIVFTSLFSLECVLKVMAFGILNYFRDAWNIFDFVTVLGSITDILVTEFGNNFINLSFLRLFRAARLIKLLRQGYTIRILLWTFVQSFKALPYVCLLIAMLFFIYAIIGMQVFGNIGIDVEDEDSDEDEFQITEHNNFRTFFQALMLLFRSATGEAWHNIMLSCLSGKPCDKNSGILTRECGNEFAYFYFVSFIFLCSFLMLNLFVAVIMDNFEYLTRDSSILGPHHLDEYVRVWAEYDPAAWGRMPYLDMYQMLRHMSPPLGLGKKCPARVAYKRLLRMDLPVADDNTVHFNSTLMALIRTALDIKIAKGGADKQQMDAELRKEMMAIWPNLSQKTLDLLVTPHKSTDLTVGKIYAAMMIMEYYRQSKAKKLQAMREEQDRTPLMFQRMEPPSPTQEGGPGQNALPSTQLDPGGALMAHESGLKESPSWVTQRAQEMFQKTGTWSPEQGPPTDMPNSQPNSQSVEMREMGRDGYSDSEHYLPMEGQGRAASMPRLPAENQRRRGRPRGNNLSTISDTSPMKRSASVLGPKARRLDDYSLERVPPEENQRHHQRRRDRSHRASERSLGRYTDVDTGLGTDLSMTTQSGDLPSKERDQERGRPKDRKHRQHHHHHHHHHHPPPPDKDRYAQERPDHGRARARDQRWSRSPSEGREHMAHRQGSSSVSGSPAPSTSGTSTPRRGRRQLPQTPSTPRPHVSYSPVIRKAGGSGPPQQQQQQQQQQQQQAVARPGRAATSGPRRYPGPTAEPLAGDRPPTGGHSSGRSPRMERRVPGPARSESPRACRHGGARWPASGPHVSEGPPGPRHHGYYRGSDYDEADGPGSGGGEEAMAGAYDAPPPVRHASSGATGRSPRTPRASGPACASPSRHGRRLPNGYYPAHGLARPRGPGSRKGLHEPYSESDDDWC
Report the figure in % without appending any unit label.

// below: answered substances
{"columns": ["SUBSTANCE", "ENDPOINT_UNIT", "VALUE_OBSERVED"],
 "data": [
  ["22 (GSSDYCSNDFCFFSCRRDRCARGDCENGKCVCKNCHLN) [compound 22]", "%", 99],
  ["23 (GSCIGEGVPCDENDPRCCFGLVCLKPTLHGIWYKSYYCYKK) [compound 23]", "%", 102],
  ["9 (GSGCFGYKCDYYKGCCSGYVCSPTWKWCVRPGPGR) [compound 9]", "%", 108],
  ["13 (GSQKILSNRCNNSSECIPHCIRIFGTRAAKCINRKCYCYP) [compound 13]", "%", 100],
  ["12 (GSNFKVEGACSKPCRKYCIDKGARNGKCINGRCHCYY) [compound 12]", "%", 104]
]}

Given 14 (GSDRDSCIDKSRCSKYGYYQECQDCCKKAGHNGGTCMFFKCKCA) [compound 14] , state its recorded Activity of Cav2.1 with peptide (percentage of the reference compound).
111

Which Activity of Cav2.1 with peptide (percentage of the reference compound) value is on record for 3 (GSSEKDCIKHLQRCRENKDCCSKKCSRRGTNPEKRCR) [compound 3] ?
131

Return reported Activity of Cav2.1 with peptide (percentage of the reference compound); argument: 2 (GSEVIRCSGSKQCYGPCKQQTGCTNSKCMNKVCKCYGCG) [compound 2]
108

Requested read-out: Activity of Cav2.1 with peptide (percentage of the reference compound). Entry: 19 (GSQFTDVKCTGSKQCWPVCKQMFGKPNGKCMNGKCRCYS) [compound 19]
109

###

biological target: Nav1.7 (Homo sapiens, UniProt Q15858); construct: host or cells: HEK293 or CHO; assay: cell-based; assay type: cell-based; details: peptide at 20 μM; second of two Nav1.7 columns (probably TP2); 100% = no change
Consider the following substances and their measured Activity of Nav1.7 with peptide (percentage of the reference compound) readings.
The reply should contain only the number, in %.

{"columns": ["SUBSTANCE", "ENDPOINT_UNIT", "VALUE_OBSERVED"],
 "data": [
  ["9 (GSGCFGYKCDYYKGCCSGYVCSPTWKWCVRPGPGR) [compound 9]", "%", 114],
  ["5 (GSGVPINVKCRGSRDCLDPCKKAGMRFGKCINSKCHCTP) [compound 5]", "%", 66]
]}

Notebook: pull reported Activity of Nav1.7 with peptide (percentage of the reference compound) for Nav1.7 (Homo sapiens, UniProt Q15858), entry 27 (GSACQFWSCNSSCISRGYRQGYCWGIQYKYCQCQ) [compound 27]
97

Request - read-out Activity of Nav1.7 with peptide (percentage of the reference compound) | tested on Nav1.7 (Homo sapiens, UniProt Q15858) | substance 10 (GSQVQTNVKCQGGSCASVCRREIGVAAGKCINGKCVCYRN) [compound 10]
90

Form: Entry = 6 (GSVRIPVSCKHSGQCLKPCKDAGMRFGKCMNGKCDCTPK) [compound 6] | System = Nav1.7 (Homo sapiens, UniProt Q15858) | Activity of Nav1.7 with peptide (percentage of the reference compound) = ____
119

Under Nav1.7 (Homo sapiens, UniProt Q15858): Activity of Nav1.7 with peptide (percentage of the reference compound) value of 12 (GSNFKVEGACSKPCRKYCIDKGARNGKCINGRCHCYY) [compound 12] ?
63

Notebook: pull reported Activity of Nav1.7 with peptide (percentage of the reference compound) for Nav1.7 (Homo sapiens, UniProt Q15858), entry 17 (GSRPTDIKCSASYQCFPVCKSRFGKTNGRCVNGLCDCF) [compound 17]
60

Request body: readout Activity of Nav1.7 with peptide (percentage of the reference compound), system Nav1.7 (Homo sapiens, UniProt Q15858), query 26 (GSVVIGQRCYRSPDCYSACKKLVGKATGKCTNGRCDC) [compound 26] . Return the value.
60

What is its Activity of Nav1.7 with peptide (percentage of the reference compound) for Nav1.7 (Homo sapiens, UniProt Q15858)? Entry: 29 (GSVFINVKCRGSPECLPKCKEAIGKSAGKCMNGKCKCYP) [compound 29]
62

Please tell me: Activity of Nav1.7 with peptide (percentage of the reference compound) of 24 (GSSCAKPGEMCMRIKCCDGQCGCNRGTGRCFCK) [compound 24] , system Nav1.7 (Homo sapiens, UniProt Q15858)?
83

Record 23 (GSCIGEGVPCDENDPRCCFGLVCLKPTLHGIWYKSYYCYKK) [compound 23] : what is its Activity of Nav1.7 with peptide (percentage of the reference compound) with Nav1.7 (Homo sapiens, UniProt Q15858)?
63

So what Activity of Nav1.7 with peptide (percentage of the reference compound) did 15 (GSAVCNLKRCQLSCRSLGLLGKCIGDKCECVKHG) [compound 15] get with Nav1.7 (Homo sapiens, UniProt Q15858)?
58

Return Activity of Nav1.7 with peptide (percentage of the reference compound) measured with Nav1.7 (Homo sapiens, UniProt Q15858) given this substance: 34 (GGYSRCQLQGFNCVVRSYGLPTIPCCRGLTCRSYFPGSTYGRCQRY) [compound 34]
80

Lab request: please report Activity of Nav1.7 with peptide (percentage of the reference compound) under test system Nav1.7 (Homo sapiens, UniProt Q15858) for 21 (GSAEIIRCSGTRECYAPCQKLTGCLNAKCMNKACKCYGCV) [compound 21]
123
